Every entry's value here was drawn from PubChem BioAssay AID1645868.

Target: OTU domain-containing protein 3 (Homo sapiens) (UniProt Q5T2D3)
Sequence (Q5T2D3 whole entry, looked up, the tested form may be a part): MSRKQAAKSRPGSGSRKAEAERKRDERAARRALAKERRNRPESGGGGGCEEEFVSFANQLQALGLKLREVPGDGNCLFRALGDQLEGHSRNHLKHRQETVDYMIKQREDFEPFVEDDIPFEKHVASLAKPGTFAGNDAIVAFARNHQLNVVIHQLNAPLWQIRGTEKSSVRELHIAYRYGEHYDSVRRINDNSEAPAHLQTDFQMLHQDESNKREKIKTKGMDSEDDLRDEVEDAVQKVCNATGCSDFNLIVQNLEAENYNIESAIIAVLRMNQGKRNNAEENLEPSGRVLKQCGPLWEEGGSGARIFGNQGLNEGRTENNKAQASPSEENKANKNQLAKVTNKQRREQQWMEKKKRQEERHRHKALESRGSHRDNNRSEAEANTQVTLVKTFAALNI
Assay: Validation of screening hits, potency titration, in vitro enzymatic, OTU domain-containing protein 3 DUB inhibitors (AID 1645868)
Settings: purified OTUD3, ubiquitin-rhodamine cleavage fluorescence, 2 h
Activity calls are given as the source filed them.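 How the source made its calls: active means maximal percent inhibition of the deubiquitinase OTUD3 of at least 30% across the tested doses; inactive means the rest.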
Outcome codes: yes (1) for active, no (0) for inactive

compound: COc1ccc(-c2cc(-c3ccccc3)nc(SCC(N)=O)c2C#N)cc1OC
class name: yes (1)
//
compound: COc1ccc(C(C)=O)cc1CC(=O)Nc1nc2ccccc2[nH]1
class name: no (0)
//
compound: CCOc1ccc2nc(NC(=O)C3CCN(S(=O)(=O)c4ccc5c(c4)CC(C)N5C(C)=O)CC3)sc2c1 (stereo unspecified)
class name: no (0)
//
compound: Cc1cc(Cl)ccc1Nc1nc(Nc2cccc(F)c2)nc2nccnc12
class name: no (0)
//
compound: COc1cc(C2SCC(=O)Nc3c2c(-c2ccccc2)nn3-c2ccccc2)cc(OC)c1OC (stereo unspecified)
class name: no (0)
//
compound: COc1ccc(CCNC(=O)c2cc(C3CC3)nc3c2cnn3C(C)C)cc1
class name: no (0)
//
compound: O=C(NCc1ccc(CN2CCCC2)cc1)c1cc2ccccc2[nH]c1=O
class name: no (0)
//
compound: Cc1cc(C(=O)NC2(O)C(=O)c3ccccc3C2=O)n(C)n1
class name: yes (1)
//
compound: Cc1ccc2[nH]c(=O)c(-c3nc4ccc(C)cn4c3NCc3ccc(F)cc3)cc2c1
class name: yes (1)
//
compound: O=C(O)c1ccccc1C(=O)Nc1ccc(SC(C(=O)Nc2ccccc2)c2ccccc2)cc1 (stereo unspecified)
class name: no (0)
//
compound: Cc1cccc(S(=O)(=O)N2CCc3nc4ccccc4n3CC2)c1
class name: yes (1)
//
compound: O=C(COc1ccc(S(=O)(=O)N2CCOCC2)cc1)N1CCC(Cc2ccccc2)CC1
class name: no (0)
//
compound: CC1CCN(c2cc(-n3cnc(C(=O)N4CCCC(C)C4)c3)ncn2)CC1 (stereo unspecified)
class name: no (0)
//
compound: O=C(NCCn1ccc2ccccc21)c1cc2ccccc2oc1=O
class name: no (0)
//
compound: O=C1COc2ccc(NC(=O)c3cnn(Cc4ccccc4)c3)cc2N1
class name: no (0)
//
compound: Cc1cccc(C(=O)Nc2cccc(SC(C(=O)Nc3ccc(O)c(C(=O)O)c3)c3ccccc3)c2)c1 (stereo unspecified)
class name: yes (1)
//
compound: CCOc1ccc2[nH]c(=O)c(CN(C(=O)c3cccs3)C3CCCC3)cc2c1
class name: yes (1)
//
compound: COc1ccc(NC(=O)Cn2c(CS(=O)(=O)c3ccc(C)cc3)nc3ccccc32)cc1
class name: yes (1)
//
compound: COc1ccc(-c2cnnn2-c2ccc(NC(=O)c3c(F)cccc3F)cc2)cc1OC
class name: no (0)
//
compound: Cc1sc(NC(=O)/C=C/c2ccco2)nc1-c1ccccc1
class name: no (0)
//
compound: Cc1cc(C)cc(NC(=O)CN2C(=O)CC(c3ccccc3)Sc3ccccc32)c1 (stereo unspecified)
class name: no (0)

* * *

Target: OTU domain-containing protein 3 (Homo sapiens) (UniProt Q5T2D3)
Assay: Validation of screening hits, potency titration, in vitro enzymatic, OTU domain-containing protein 3 DUB inhibitors (AID 1645868)
Details: purified OTUD3, ubiquitin-rhodamine cleavage fluorescence, 2 h
Calls of active or inactive are those of the source.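 How the source made its calls: active means maximal percent inhibition of the deubiquitinase OTUD3 of at least 30% across the tested doses; inactive means the rest.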
Labels: active, inactive

molecule: Cn1cc(CCNC(=O)c2cc3ccccc3[nH]2)c2cccnc21
class name: inactive
--
molecule: CC1Oc2ccccc2C(=O)N(Cc2ccc([N+](=O)[O-])cc2)C1=O (stereo not given)
class name: inactive
--
molecule: COc1ccc(CC(=O)NCc2ccc3[nH]c(C)cc3c2)cc1
class name: inactive
--
molecule: Cn1nc(-c2nc(-c3ccccc3)no2)c2c1CCN(C(=O)C1CCCC1)C2
class name: inactive
--
molecule: Cc1cc(C(=O)COC(=O)c2ccc[nH]c2=O)c(C)n1-c1ccc2c(c1)OCO2
class name: inactive
--
molecule: O=C(CSc1ncnc2c1oc1ccccc12)NC1CCCC1
class name: active
--
molecule: CCCCCC(=O)N1c2ccccc2NC2=C(C(=O)CC(c3ccc(C(C)(C)C)cc3)C2)C1c1ccncc1 (stereo not given)
class name: active
--
molecule: N#Cc1ccc(Cl)cc1NC(=O)COc1cccnc1[N+](=O)[O-]
class name: inactive
--
molecule: O=C(Cc1cccc2ccccc12)Nc1nc2ccc(F)cc2s1
class name: inactive
--
molecule: CN1CCN(c2ccc3nc(-c4ccccc4)c(-c4ccccc4)nc3c2)CC1
class name: inactive

* * *

Target: OTU domain-containing protein 3 (Homo sapiens) (UniProt Q5T2D3)
Test: Validation of screening hits, potency titration, in vitro enzymatic, OTU domain-containing protein 3 DUB inhibitors (AID 1645868)
Details: purified OTUD3, ubiquitin-rhodamine cleavage fluorescence, 2 h
The source made the active and inactive calls.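 The calls were made as follows: active = maximal percent inhibition of the deubiquitinase OTUD3 of at least 30% across the tested doses; inactive = the rest.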
Possible outcomes: active, inactive

compound: COc1ccc(C2CC(c3ccc(C)cc3)N(C(=O)C3CC3)c3ncnn32)cc1 (stereo not given)
tested system: OTU domain-containing protein 3 (Homo sapiens) (UniProt Q5T2D3)
class name: inactive
--
compound: COCCCn1c(C(=O)Nc2ccccc2OC)cc2c(=O)n3ccccc3nc21
tested system: OTU domain-containing protein 3 (Homo sapiens) (UniProt Q5T2D3)
class name: inactive
--
compound: O=C(c1ccco1)N1CCN=C1SCc1ccccc1F
tested system: OTU domain-containing protein 3 (Homo sapiens) (UniProt Q5T2D3)
class name: inactive
--
compound: COc1ccc(CCNC(=O)CCCCn2c(=O)c3ccccc3n(Cc3cccc(Cl)c3)c2=O)cc1OC
tested system: OTU domain-containing protein 3 (Homo sapiens) (UniProt Q5T2D3)
class name: active
--
compound: COc1ccc(NCc2cc(=O)n3[nH]c(NCc4ccc(C(C)C)cc4)nc3n2)cc1
tested system: OTU domain-containing protein 3 (Homo sapiens) (UniProt Q5T2D3)
class name: inactive

* * *

Molecular target: OTU domain-containing protein 3 (Homo sapiens)
Experiment: Validation of screening hits, potency titration, in vitro enzymatic, OTU domain-containing protein 3 DUB inhibitors (AID 1645868)
Settings: purified OTUD3, ubiquitin-rhodamine cleavage fluorescence, 2 h
Active and inactive are the calls of the source.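 How the source made its calls: active means maximal percent inhibition of the deubiquitinase OTUD3 of at least 30% across the tested doses; inactive means the rest.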
Outcome codes: true (active), false (inactive)

molecule: O=C(Nc1cccc(S(=O)(=O)N2CCCC2)c1)c1ccc2c(=O)n3c(nc2c1)CCCCC3
class name: false
//
molecule: Cc1cccc(NC(=O)c2ccn(COc3ccc(F)cc3F)n2)c1C
class name: false
//
molecule: C[C@H](NC(=O)Cc1ccccc1F)c1nc2cc(-c3ccccc3F)ncn2n1
class name: false
//
molecule: COc1cccc(N2C(=O)N(CC(=O)NCc3ccc(Cl)cc3)c3ccccc3S2(=O)=O)c1
class name: true
//
molecule: O=[N+]([O-])c1ccc(NCC2COc3ccccc3O2)c(Cl)c1 (stereo not given)
class name: false

* * *

Target: OTU domain-containing protein 3 (Homo sapiens)
Assay: Validation of screening hits, potency titration, in vitro enzymatic, OTU domain-containing protein 3 DUB inhibitors (AID 1645868)
Settings: purified OTUD3, ubiquitin-rhodamine cleavage fluorescence, 2 h
Active and inactive are the calls of the source.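 Rule for the calls: active = maximal percent inhibition of the deubiquitinase OTUD3 of at least 30% across the tested doses; inactive = the rest.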
Labels: 1 = active, -1 = inactive

compound: COc1cc(C)cc2c1C(=O)c1c(cc(O)c(Cl)c1O)C2=O
tested system: OTU domain-containing protein 3 (Homo sapiens)
class name: 1
//
compound: COc1ccc(CC(=O)Nc2nc(-c3ccco3)c(-c3ccco3)s2)cc1
tested system: OTU domain-containing protein 3 (Homo sapiens)
class name: -1
//
compound: Cn1c(=O)[nH]c2nncnc2c1=O
tested system: OTU domain-containing protein 3 (Homo sapiens)
class name: -1
//
compound: Nc1ncnc(SCc2ccc(Cl)cc2)n1
tested system: OTU domain-containing protein 3 (Homo sapiens)
class name: 1
//
compound: Cc1ccc(-c2ccc(N3CCOCC3)nn2)cc1S(=O)(=O)N1CCOCC1
tested system: OTU domain-containing protein 3 (Homo sapiens)
class name: -1
//
compound: Cc1cc2nc(Oc3cccc(Cl)c3)c3ccccc3n2n1
tested system: OTU domain-containing protein 3 (Homo sapiens)
class name: -1
//
compound: O=C(Nc1ccc(-c2cn3ccsc3n2)cc1)c1ccc(Cl)c([N+](=O)[O-])c1
tested system: OTU domain-containing protein 3 (Homo sapiens)
class name: 1
//
compound: O=C(Cn1nc2c3c4c(sc3ncn2c1=O)CCCCC4)Nc1ccc(Cl)cc1F
tested system: OTU domain-containing protein 3 (Homo sapiens)
class name: 1
//
compound: COc1ccccc1/C=C/C(=O)Nc1nc2n(n1)C(c1ccc(Cl)cc1)CC(=O)N2 (stereo unspecified)
tested system: OTU domain-containing protein 3 (Homo sapiens)
class name: -1
//
compound: COc1cccc(-c2cc(=O)[nH]c(Nc3nc(C)c4ccccc4n3)n2)c1
tested system: OTU domain-containing protein 3 (Homo sapiens)
class name: -1
//
compound: Cc1ccc(C(=O)NCc2ccc(C(=O)Nc3cccc(C)c3)o2)cc1
tested system: OTU domain-containing protein 3 (Homo sapiens)
class name: -1

* * *

Molecular target: OTU domain-containing protein 3 (Homo sapiens) (UniProt Q5T2D3)
Test: Validation of screening hits, potency titration, in vitro enzymatic, OTU domain-containing protein 3 DUB inhibitors (AID 1645868)
Conditions: purified OTUD3, ubiquitin-rhodamine cleavage fluorescence, 2 h
Calls of active or inactive are those of the source.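 The calls were made as follows: active = maximal percent inhibition of the deubiquitinase OTUD3 of at least 30% across the tested doses; inactive = the rest.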
Outcome codes: active, inactive

mol: CCc1ccc(-c2nc(SCC(=O)Nc3ccc4[nH]c(=O)[nH]c4c3)n[nH]2)cc1
tested system: OTU domain-containing protein 3 (Homo sapiens) (UniProt Q5T2D3)
class name: active

mol: O=[N+]([O-])c1ccccc1C(c1c[nH]c2ccccc12)c1c[nH]c2ccccc12
tested system: OTU domain-containing protein 3 (Homo sapiens) (UniProt Q5T2D3)
class name: active

mol: COc1ccc(NC(=O)c2nc3n(n2)-c2ccccc2S(=O)(=O)N3)cn1
tested system: OTU domain-containing protein 3 (Homo sapiens) (UniProt Q5T2D3)
class name: inactive

mol: COc1ccc(/C=C/C(=O)Nc2ccc3c(c2)OCCO3)cc1Br
tested system: OTU domain-containing protein 3 (Homo sapiens) (UniProt Q5T2D3)
class name: inactive

mol: O=S(=O)(c1ccccc1Cl)N1CCN(c2ccc3nnc(-c4ccco4)n3n2)CC1
tested system: OTU domain-containing protein 3 (Homo sapiens) (UniProt Q5T2D3)
class name: inactive
